- Tested on: SN12C renal
- PROTOCOL TEXT: NCI tumour cell line growth inhibition, 48 h
Measured TGI of individual entries

>>> df
                                   molecule  tested_target  measured_value
0  O=[N+]([O-])c1ccc2nc(/C=C(\O)c3ccccc3)c(NC34CC5CC(CC(C5)C3)C4)nc2c1    SN12C renal         > 10 µM
1         CCCCCC/C=C\CCCCCCCCCc1cccc(OC)c1O    SN12C renal        > 100 µM
2  C/C=C/C(O)P(=O)(OC)OC (stereo not given)    SN12C renal         1.79 µM
3  COc1ccc(/C=C\c2cc(OC)c(OC)c(OC)c2)cc1N/C=C\C(=O)c1c[nH]c2ccccc12    SN12C renal        > 100 µM
4  CC(CCCCNC(=O)OC(C)(C)C)NC(=O)NC(C)CCCCNC(=O)OC(C)(C)C (stereo not given)    SN12C renal        > 100 µM
5  COc1cc(/C=C2\CC3C4CC[C@H]5C[C@@H](O)CC[C@]5(C)C4CC[C@]3(C)\C2=N\O)cc(OC)c1OC (stereo not given in full)    SN12C renal         41.9 µM
6   Fc1c(F)c(F)c(CSc2nc3ccccc3[nH]2)c(F)c1F    SN12C renal        > 100 µM
7            O=c1[nH]nc(Cc2ccc(Cl)cc2)n1CCO    SN12C renal        > 100 µM

What value of measured TGI is listed for Cn1c(=O)c2[nH]c(CCS)nc2n(C)c1=O ?
> 100 µM

Follow-up entry: COc1cc(NC(=O)c2cc3ccccc3cc2O)c(OC)cc1Cl
6.36 µM

Values compiled from PubChem BioAssay (NCI).
